study-target: T1, human SLC34A2 (human, UniProt O95436 1-690)
T1 construct: whole, on cells; also called human solute carrier 34 A2; NaPi2b
T1 sequence (looked up): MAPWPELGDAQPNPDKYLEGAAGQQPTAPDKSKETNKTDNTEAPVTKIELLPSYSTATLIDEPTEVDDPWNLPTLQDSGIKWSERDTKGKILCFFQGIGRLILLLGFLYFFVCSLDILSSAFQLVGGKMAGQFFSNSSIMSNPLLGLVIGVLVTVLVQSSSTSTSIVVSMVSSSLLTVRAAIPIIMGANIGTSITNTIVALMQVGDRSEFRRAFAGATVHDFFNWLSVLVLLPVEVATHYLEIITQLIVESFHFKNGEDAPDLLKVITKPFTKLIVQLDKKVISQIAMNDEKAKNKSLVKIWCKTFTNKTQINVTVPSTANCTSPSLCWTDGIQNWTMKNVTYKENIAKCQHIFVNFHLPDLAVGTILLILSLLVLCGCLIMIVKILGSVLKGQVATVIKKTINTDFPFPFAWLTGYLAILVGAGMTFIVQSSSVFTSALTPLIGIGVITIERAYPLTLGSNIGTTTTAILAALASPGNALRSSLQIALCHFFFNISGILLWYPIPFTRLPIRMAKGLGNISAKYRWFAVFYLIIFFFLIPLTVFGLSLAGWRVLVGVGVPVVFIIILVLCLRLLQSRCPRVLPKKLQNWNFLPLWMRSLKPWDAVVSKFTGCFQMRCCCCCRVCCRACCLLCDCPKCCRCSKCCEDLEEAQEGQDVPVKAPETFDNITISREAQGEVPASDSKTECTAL
protocol: FACS, OVCAR3 cells
readout: EC50 (nM)

• 91C9F1.p1.z4 hIgG1 (antibody, V domains shown, humanized hIgG1) VH: QVQLVQSGAEVKKPGSSVKVSCKASGFFFTEYIIHWVRQAPGQGLEWMGGIIPNNDVTNYKQNFRGRVTITADESTSTAYMELSSLRSEDTAVYYCARWRNAYYSAMDSWGQGTTVTVSS VL: DIVVTQSPSSLSTSVGDRVTITCTASQDVGTAVAWYQQKPGKSPKLLIYWASTRHTGVPERFTGSGSGTDFTLTISSVQPEDVATYFCQQYRTSPLTFGVGTKLELK = 1.12
• 91C9F1.p1.z11 hIgG1 (antibody, V domains shown, humanized hIgG1) VH: QVQLVQSGAEVVKPGSSVKVSCKTSGFFFTEYIIHWVRQSPGQGLEWIGGIIPNNDVTNYKQNFRGRATLTADKSTSTAYMELSSLRSEDTAVYYCARWRNAYYSAMDSWGQGTTVTVSS VL: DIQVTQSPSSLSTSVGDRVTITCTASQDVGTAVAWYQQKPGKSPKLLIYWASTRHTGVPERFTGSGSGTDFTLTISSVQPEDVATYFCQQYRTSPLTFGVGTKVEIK = 1.41

Origin of values: patent US20240301052A1
